- Tested on: MOLT-4
- PROCEDURE_TEXT: NCI tumour cell line growth inhibition, 48 h
Active and inactive are the calls of the source. No stated cut-off is given here; in the data, active = GI50 up to about 1.1 µM and inactive = higher.
Tick one outcome: 1 = active, 0 = inactive

Some solved cases for reference:
{"COMPOUND": "CCN(CC)CC(C(C)=O)C(c1ccccc1)c1c(O)c2ccccc2oc1=O (centres undefined)", "CAT": 0}
{"COMPOUND": "Cc1cn(C2CC(OC(c3ccccc3)(c3ccccc3)c3ccccc3)C(COC(c3ccccc3)(c3ccccc3)c3ccccc3)O2)c(=O)[nH]c1=O (centres undefined)", "CAT": 0}
{"COMPOUND": "O=C(CC(=O)N1N=C(n2ccc3ccccc32)CC1c1ccccc1)Nc1cccc(Cl)c1 (centres undefined)", "CAT": 0}
{"COMPOUND": "Cn1nc(-c2ccccc2)c2c(/C=C/c3ccc(F)cc3)onc2c1=O", "CAT": 0}

Fill in: this test's call for Cc1ccsc1/C(S)=N\c1ccc(Cl)c(/C=N/OC(C)(C)C)c1 is ___ 0

Fill in: this test's call for CC(=O)C(CN(CC(C)C)CC(C)C)C(c1ccccc1)c1c(O)c2ccccc2oc1=O (centres undefined) is ___ 0

Fill in: this test's call for CN(C)CC1CCC/C(=C\c2ccc(N(C)C)cc2)C1=O (centres undefined) is ___ 0

Fill in: this test's call for O=C1C=CC(=O)c2c(O)ccc(O)c21 is ___ 1

Fill in: this test's call for COP(=O)(OC)C(O)/C=C/c1ccco1 (centres undefined) is ___ 0

Fill in: this test's call for O=c1[nH]/c(=C/c2ccc(OCc3ccccc3)cn2)c(=O)[nH]/c1=C/c1ccc([N+](=O)[O-])cc1 is ___ 0

Fill in: this test's call for O=C1O[B-](c2ccccc2)(c2ccccc2)[NH+]2CCCC12 (centres undefined) is ___ 0

---

- Tested on: MOLT-4
- PROCEDURE_TEXT: NCI tumour cell line growth inhibition, 48 h
Activity calls are given as the source filed them. Cut-off read from the data, not from the text of the source: active = GI50 up to about 1.1 µM and inactive = higher.
Tick one outcome: 1 (active), -1 (inactive)

Some solved cases for reference:
{"COMPOUND": "CC[C@](O)(CC(=O)O[C@H]1C(=O)O[C@@H]2C[C@H]3C(C)=CC(=O)[C@@H](O)[C@]3(C)[C@H]3[C@@]4(O)OC[C@]32[C@@H]1[C@@H](C)[C@H]4O)C(C)C", "CAT": 1}
{"COMPOUND": "O=C1CCCSCCCC(=O)CCCSCCC1", "CAT": -1}
{"COMPOUND": "COc1ccc(C2NC(c3ccc(OC)cc3)C(C)C(=O)C2C)cc1 (stereo not drawn)", "CAT": -1}
{"COMPOUND": "Cn1ccnc1SC(F)(F)c1nc2ccccc2o1", "CAT": -1}

Fill in: this test's call for C=CCN1CCC(O)(c2cc(C(=O)OCC)[nH]c2-c2cc(C)no2)C1 (stereo not drawn) is ___ -1

Fill in: this test's call for CCCc1nc(Cl)c(Cl)c(Cl)n1 is ___ -1

Fill in: this test's call for CCNC(=O)c1cc(/C=C/c2ccc([N+](=O)[O-])o2)nc2ccccc12 is ___ 1

Fill in: this test's call for C[C@H](CN1CC(=O)NC(=O)C1)N1CC(=O)NC(=O)C1 is ___ -1

Fill in: this test's call for CN(C)CCN(C)C(=O)C1CCCN1C(=O)OCc1ccccc1 (stereo not drawn) is ___ -1

Fill in: this test's call for CC(C)=Cc1cc2c(cc1O)CCC1C2CC[C@@]2(C)C1CC[C@@H]2O (stereo partly drawn) is ___ -1

---

- Test system: SF-268
- PROCEDURE_TEXT: NCI tumour cell line growth inhibition, 48 h
Activity calls are given as the source filed them. No stated cut-off is given here; in the data, active = GI50 up to about 1.1 µM and inactive = higher.
Tick one outcome: active, inactive

{"MOLECULE": "CC(C)C(=O)CC(c1ccc(Br)cc1)N1N=C(C(C)C)CC1c1ccc(Br)cc1 (stereo not drawn)", "CAT": "inactive"}
{"MOLECULE": "Cc1cc(OCc2nc(N)nc(N)c2-c2ccc(Cl)c(Cl)c2)ccc1[N+](=O)[O-]", "CAT": "active"}
{"MOLECULE": "COc1ccc(OC)c(NC(=O)C2=C(C)NC(C)=C(C(=O)Nc3cc(OC)ccc3OC)C2c2ccccc2)c1", "CAT": "inactive"}
{"MOLECULE": "C[N+]1(C)CC=C(N2CCOCC2)CC1", "CAT": "inactive"}
{"MOLECULE": "COc1ccc(C2CCc3cc4c(cc3/C2=N/OC(C)=O)OCO4)cc1OC (stereo not drawn)", "CAT": "inactive"}
{"MOLECULE": "CN(C)CC1CCC/C(=C\\c2ccc(N(C)C)cc2)C1=O (stereo not drawn)", "CAT": "inactive"}

Fill in: this test's call for CCOc1cc2c(C(=O)CC)c(O)ccc2o1 is ___ inactive

Fill in: this test's call for Cc1c2c(nc3ccccc13)C(=O)c1cccnc1C2=O is ___ inactive

---

Listing of recorded GI50 by entry.
- Test system: HL-60
- PROCEDURE_TEXT: NCI tumour cell line growth inhibition, 48 h
The source made the active and inactive calls. Cut-off read from the data, not from the text of the source: active = GI50 up to about 1.1 µM and inactive = higher.

Example cases with answers are listed next.
{"MOLECULE": "Cn1c(=O)c(C(c2ccc([N+](=O)[O-])cc2)c2c(O)c3ccccc3n(C)c2=O)cc2ccccc21 (centres undefined)", "GI50": "36.1 µM (inactive)"}
{"MOLECULE": "Cn1c(S)nc(C(N)=O)c1N", "GI50": "> 100 µM (inactive)"}
{"MOLECULE": "Cc1c2c3ccccc3nc-2n(C)c2ccccc12", "GI50": "3.29 µM (inactive)"}

# lookup: GI50 of C=C1C(OC2O[C@@H]3O[C@@]4(C)CC[C@H]5[C@H](C)CC[C@@H](C2=C)[C@@]35O4)O[C@@H]2O[C@@]3(C)CC[C@H]4[C@H](C)CC[C@@H]1[C@@]24O3 (some centres undefined) > 50 µM (inactive)

---

- Test system: RXF 393
- PROCEDURE_TEXT: NCI tumour cell line growth inhibition, 48 h
The source made the active and inactive calls. No stated cut-off is given here; in the data, active = GI50 up to about 1.1 µM and inactive = higher.
Tick one outcome: active, inactive

{"MOLECULE": "Cc1cc(OCc2nc(N)nc(N)c2-c2ccc(Cl)c(Cl)c2)ccc1[N+](=O)[O-]", "CAT": "active"}
{"MOLECULE": "Oc1cccc(-c2nc3cc(F)ccc3s2)c1", "CAT": "inactive"}
{"MOLECULE": "N=C1N(/N=C/c2ccccn2)/C(=N\\c2ccccc2)C(=S)N1c1ccccc1", "CAT": "inactive"}
{"MOLECULE": "CCOc1cc2c(C(=O)CC)c(O)ccc2o1", "CAT": "inactive"}
{"MOLECULE": "COc1ccccc1-c1nc[nH]c1-c1ccccc1OC", "CAT": "inactive"}

Fill in: this test's call for C=CCC(CNC(=O)OCc1ccccc1)O[Si](C)(C)C(C)(C)C (stereo not drawn) is ___ inactive

---

Listing of recorded GI50 by entry.
- Tested on: LOX IMVI
- PROCEDURE_TEXT: NCI tumour cell line growth inhibition, 48 h
Active and inactive are the calls of the source. No stated cut-off is given here; in the data, active = GI50 up to about 1.1 µM and inactive = higher.

Example cases with answers are listed next.
{"MOLECULE": "O=C(c1ccccc1)c1c(C(=O)c2ccccc2)c(-c2ccccc2)c2c(-c3ccccc3)sc(-c3ccccc3)c2c1-c1ccccc1", "TARGET_OF_ASSAY": "LOX IMVI", "QUANTITY_KIND": "GI50", "RESULT": "> 100 µM (inactive)"}
{"MOLECULE": "O=c1[nH]c(=O)c2c([nH]1)[nH]c1ccc(Br)cc12", "TARGET_OF_ASSAY": "LOX IMVI", "QUANTITY_KIND": "GI50", "RESULT": "> 100 µM (inactive)"}
{"MOLECULE": "COc1ccc2oc(=O)c(-c3nc4ccccc4o3)cc2c1", "TARGET_OF_ASSAY": "LOX IMVI", "QUANTITY_KIND": "GI50", "RESULT": "> 100 µM (inactive)"}
{"MOLECULE": "CCCCCCOc1ccc(C(=O)NOCc2ccccc2)cc1", "TARGET_OF_ASSAY": "LOX IMVI", "QUANTITY_KIND": "GI50", "RESULT": "> 100 µM (inactive)"}

# lookup: GI50 of COc1ccccc1-c1nc[nH]c1-c1ccccc1OC 16.8 µM (inactive)

# lookup: GI50 of COc1cc2c[n+](C)c3c4cc5c(cc4ccc3c2cc1OC)OCO5 [NITIDINE CHLORIDE] 3.97 µM (inactive)

# lookup: GI50 of Cc1c2c(nc3ccccc13)C(=O)c1cccnc1C2=O 10.7 µM (inactive)

# lookup: GI50 of CC(C)CCNC(=O)c1ccc(CNC(=O)/C=C/c2ccc3ccccc3c2)cc1 > 100 µM (inactive)

# lookup: GI50 of CN(C)C1(c2cc3ccccc3s2)CCCCC1 22.5 µM (inactive)

---

- Test system: NCI/ADR-RES
- PROCEDURE_TEXT: NCI tumour cell line growth inhibition, 48 h
Active and inactive are the calls of the source. No stated cut-off is given here; in the data, active = GI50 up to about 1.1 µM and inactive = higher.
Listing of recorded GI50 by entry.

{"COMPOUND": "N=C1N(/N=C/c2ccccn2)/C(=N\\c2ccccc2)C(=S)N1c1ccccc1", "GI50": "2.83 µM (inactive)"}

Query the reported GI50 for NCI/ADR-RES; item: NC(Cc1ccc(OCc2ccccc2)cn1)C(=O)O (stereo not drawn) > 100 µM (inactive)

Query the reported GI50 for NCI/ADR-RES; item: Cn1cnc(N2CCCC2)c(C#N)c1=O > 100 µM (inactive)

Values were extracted from ChEMBL document CHEMBL1201862.
